# Species on record: Rattus norvegicus
# Test name: DrugMatrix - Regimen: Daily Repeat
# Format: toxicity, organism-based, Sprague-Dawley
# Design: regimen Daily Repeat, gender Male, age 6-8 weeks
# Condition details: in vivo, po, 0 mg/kg, 120 h, tissue Plasma, route oral GAVAGE, dose level Control, time 5 day, vehicle 100 % WATER
Think of 50 u/L as a floor: if ALANINE AMINOTRANSFERASE stands on it or above, it is class 1; beneath it, class 0.

Consider the following illustrative entries.
- Compound: "CCN(CC)CC#CCOC(=O)C(O)(c1ccccc1)C1CCCCC1 (configuration not stated)"
  Label: "class 1"
- Compound: "CC[C@H]1OC(=O)[C@H](C)[C@@H](O[C@H]2C[C@@](C)(OC)[C@@H](O)[C@H](C)O2)[C@H](C)[C@@H](O[C@@H]2O[C@H](C)C[C@H](N(C)C)[C@H]2O)[C@](C)(OC)C[C@@H](C)C(=O)[C@H](C)[C@@H](O)[C@]1(C)O"
  Label: "class 1"
- Compound: "CCN[C@@H](C)Cc1cccc(C(F)(F)F)c1"
  Label: "class 0"
- Compound: "CC(C)(C)NC[C@H](O)COc1nsnc1N1CCOCC1"
  Label: "class 0"
- Compound: "CN1C2CCCC1CC(NC(=O)c1nn(C)c3ccccc13)C2 (configuration not stated)"
  Label: "class 0"

Test whether the compound O=P1(N(CCCl)CCCl)NCCCO1 (configuration not stated) [CYCLOPHOSPHAMIDE ANHYDROUS] records ALANINE AMINOTRANSFERASE of 50 u/L or higher.
class 1

Test whether the compound "CCCCCCCCCCCCCCCC[n+]1ccccc1.[Br-]" records ALANINE AMINOTRANSFERASE of 50 u/L or higher.
class 1

Test whether the compound "Nc1ccc(S(=O)(=O)Nc2nccs2)cc1" records ALANINE AMINOTRANSFERASE of 50 u/L or higher.
class 0

Test whether the compound Cc1c(N(C)CS(=O)(=O)[O-])c(=O)n(-c2ccccc2)n1C.[Na+] [DIPYRONE SODIUM] records ALANINE AMINOTRANSFERASE of 50 u/L or higher.
class 0

Test whether the compound "O=C(O)c1cccnc1" records ALANINE AMINOTRANSFERASE of 50 u/L or higher.
class 1

Test whether the compound "Nc1ccc(S(=O)(=O)Nc2ncccn2)cc1" records ALANINE AMINOTRANSFERASE of 50 u/L or higher.
class 0

Test whether the compound "CC[C@H]1OC(=O)[C@H](C)[C@@H](O[C@H]2C[C@@](C)(OC)[C@@H](O)[C@H](C)O2)[C@H](C)[C@@H](O[C@@H]2O[C@H](C)C[C@H](N(C)C)[C@H]2O)[C@](C)(O)C[C@@H](C)CN(C)[C@H](C)[C@@H](O)[C@]1(C)O" records ALANINE AMINOTRANSFERASE of 50 u/L or higher.
class 1

Test whether the compound "O=C(O)c1cc(=O)c2c(OCC(O)COc3cccc4oc(C(=O)O)cc(=O)c34)cccc2o1" records ALANINE AMINOTRANSFERASE of 50 u/L or higher.
class 0

###

Measured ALANINE AMINOTRANSFERASE, listed per entry.
# Species on record: Rattus norvegicus
# Test name: DrugMatrix - Regimen: Daily Repeat
# Format: toxicity, organism-based, Sprague-Dawley
# Parameters: regimen Daily Repeat, gender Male, age 6-8 weeks
# Condition details: in vivo, po, 100 mg/kg, 120 h, tissue Plasma, route oral GAVAGE, dose level Low, time 5 day, vehicle .5 % CMC
Please give a number only; it is taken to be in u/L.

- Compound: "CC[C@]1(O)CC[C@H]2[C@@H]3CCC4=CCCC[C@@H]4[C@H]3CC[C@@]21C"
  ALANINE AMINOTRANSFERASE (u/L): 38.67
- Compound: "CC=Cc1ccc(O)c(OC)c1 [ISOEUGENOL]"
  ALANINE AMINOTRANSFERASE (u/L): 47.67
- Compound: "Nc1nc2c(c(=O)[nH]1)N(C=O)C(CNc1ccc(C(=O)N[C@@H](CCC(=O)O)C(=O)O)cc1)CN2 (some centres undefined) [LEUCOVORIN]"
  ALANINE AMINOTRANSFERASE (u/L): 52

Now for a further compound.
Provide measured ALANINE AMINOTRANSFERASE value, entry: C#C[C@]1(O)CC[C@H]2[C@@H]3CCC4=Cc5oncc5C[C@]4(C)[C@H]3CC[C@@]21C [DANAZOL]
59.67
